Entries and their TGI values follow.
- System: OVCAR-5 ovarian
- ASSAY COMMENT: NCI tumour cell line growth inhibition, 48 h

// solved cases for TGI follow
O=C([CH-]C(=O)c1ccccc1)c1ccccc1.O=C([CH-]C(=O)c1ccccc1)c1ccccc1.O=C([CH-]C(=O)c1ccccc1)c1ccccc1.[Ga+3] | > 100 µM
C=C(Br)C(C)(Cl)CCC(Br)C(C)(C)Br (stereo unspecified) | > 100 µM
COc1ccc(-c2cc(N3CCN(c4ccc(Cl)cc4)CC3)c(C#N)c(=O)o2)cc1 | > 100 µM
Cc1c(C(Cc2ccccc2N(C)C(=O)/C=C\C(=O)O)c2c[nH]c3ccccc23)c2ccccc2n1C (stereo unspecified) | 35.6 µM
NCCCCCC(CCN)SCC1OC(n2cnc3c(N)ncnc32)C(O)C1O (stereo unspecified) | > 1500 µM

Next up:
### Prompt So what TGI did O=C(CCCc1ccc(N(CCCl)CCCl)cc1)NCc1ccccc1 get with OVCAR-5 ovarian?
### Response > 100 µM
